target.or.test.system: Neuronal acetylcholine receptor subunit alpha-7 (Homo sapiens)
method.notes: Antagonist activity at human alpha7 nAChR expressed in Xenopus laevis oocytes assessed as inhibition of Ach-induced current at 100 uM measured at holding potential of -90 mV by two electrode voltage-clamp assay relative to control
Type: cell-based
run.parameters: Oocyte, filed as antagonist
measured.quantity: inhibition (%)

# chemical.smiles, target.or.test.system, unit.name, inhibition
rows = [
    ("Fc1cccc(C2=NOC3(CCN(Cc4ccccc4)CC3)N2)c1", "Neuronal acetylcholine receptor subunit alpha-7 (Homo sapiens)", "%", 83.1),
    ("CN1CCC2(CC1)NC(c1ccc(-c3cccc(N)c3)cc1)=NO2", "Neuronal acetylcholine receptor subunit alpha-7 (Homo sapiens)", "%", 78.2),
    ("COc1ccc(C2=NOC3(CCN(Cc4ccccc4)CC3)N2)c(OC)c1", "Neuronal acetylcholine receptor subunit alpha-7 (Homo sapiens)", "%", 79.1),
    ("c1ccc(CN2CCC3(CC2)NC(c2cc4ccccc4cn2)=NO3)cc1", "Neuronal acetylcholine receptor subunit alpha-7 (Homo sapiens)", "%", 91.1),
    ("Cc1cccc(C2=NOC3(CCN(Cc4ccccc4)CC3)N2)c1", "Neuronal acetylcholine receptor subunit alpha-7 (Homo sapiens)", "%", 75.4),
]

###

target.or.test.system: Neuronal acetylcholine receptor subunit alpha-7 (Homo sapiens, UniProt P36544)
Sequence (P36544 whole entry): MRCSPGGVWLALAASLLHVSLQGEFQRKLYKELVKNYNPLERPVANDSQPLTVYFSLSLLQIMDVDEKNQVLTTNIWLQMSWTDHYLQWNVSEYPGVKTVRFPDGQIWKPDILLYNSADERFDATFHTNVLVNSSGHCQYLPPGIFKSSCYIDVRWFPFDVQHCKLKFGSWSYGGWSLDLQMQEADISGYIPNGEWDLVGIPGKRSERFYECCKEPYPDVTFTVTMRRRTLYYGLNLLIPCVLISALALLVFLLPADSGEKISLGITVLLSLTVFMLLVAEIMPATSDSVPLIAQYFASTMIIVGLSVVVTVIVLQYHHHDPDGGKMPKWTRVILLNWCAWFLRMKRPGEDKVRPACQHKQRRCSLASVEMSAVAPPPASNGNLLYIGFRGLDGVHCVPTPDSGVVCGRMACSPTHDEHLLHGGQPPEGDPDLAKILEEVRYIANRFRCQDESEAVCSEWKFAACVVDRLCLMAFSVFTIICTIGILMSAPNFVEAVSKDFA
method.notes: Antagonist activity at human alpha7 nAChR expressed in Xenopus laevis oocytes assessed as inhibition of Ach-induced current at 100 uM measured at holding potential of -90 mV by two electrode voltage-clamp assay relative to control
Type: cell-based
run.parameters: Oocyte, filed as antagonist
measured.quantity: inhibition (%)

# chemical.smiles, inhibition [%]
records = [
    ("Cc1ccccc1-c1ccc(C2=NOC3(CCN(Cc4ccccc4)CC3)N2)cc1", 72),
    ("c1ccc(CN2CCC3(CC2)NC(c2cc4ccccc4cn2)=NO3)nc1", 80),
    ("CN(C)c1cccc(-c2ccc(C3=NOC4(CCN(Cc5ccccc5)CC4)N3)cc2)c1", 81.1),
    ("c1ccc2cc(C3=NOC4(CCN(Cc5ccncc5)CC4)N3)ncc2c1", 58.2),
    ("COc1cccc(-c2ccc(C3=NOC4(CCN(Cc5ccccc5)CC4)N3)cn2)c1", 58.2),
]

###

target.or.test.system: Neuronal acetylcholine receptor subunit alpha-7 (Homo sapiens)
method.notes: Antagonist activity at human alpha7 nAChR expressed in Xenopus laevis oocytes assessed as inhibition of Ach-induced current at 30 uM measured at holding potential of -90 mV by two electrode voltage-clamp assay relative to control
Type: cell-based
run.parameters: Oocyte
Activity calls are given as the source filed them. The calls are words filed in the database; no cut-off is given here.
measured.quantity: inhibition

Reference set, count: 6
# chemical.smiles, inhibition
rows = [
    ("c1ccc(C2=NOC3(CCN(Cc4ccccn4)CC3)N2)cc1", "inactive"),
    ("c1ccc(CN2CCC3(CC2)NC(c2ccccn2)=NO3)cc1", "inactive"),
    ("c1ccc(CN2CCC3(CC2)NC(c2ccc(-c4ccccc4)cc2)=NO3)cc1", "inactive"),
    ("COc1cc(OC)cc(-c2ccc(C3=NOC4(CCN(Cc5ccccc5)CC4)N3)cc2)c1", "inactive"),
    ("Clc1ccc(-c2ccc(C3=NOC4(CCN(Cc5ccccc5)CC4)N3)cc2)cc1", "inactive"),
    ("CN(C)c1cccc(-c2ccc(C3=NOC4(CCN(Cc5ccccc5)CC4)N3)cc2)c1", "39.5%"),
]

Asked: Quickly give me recorded inhibition for c1ccc(CN2CCC3(CC2)NC(c2ccc(-c4cccs4)cc2)=NO3)cc1
Given back: inactive

Asked: Quickly give me recorded inhibition for FC(F)(F)c1cccc(-c2ccc(C3=NOC4(CCN(Cc5ccccc5)CC4)N3)cc2)c1
Given back: inactive

Asked: Quickly give me recorded inhibition for CN1CCC2(CC1)NC(c1ccc(-c3cccc(N)c3)cc1)=NO2
Given back: inactive

Asked: Quickly give me recorded inhibition for c1ccc(CN2CCC3(CC2)NC(c2nccs2)=NO3)nc1
Given back: 39.3%

Asked: Quickly give me recorded inhibition for COc1ccc(C2=NOC3(CCN(Cc4ccccc4)CC3)N2)cc1
Given back: inactive

Asked: Quickly give me recorded inhibition for Cc1cccc(C2=NOC3(CCN(Cc4ccccc4)CC3)N2)c1
Given back: inactive

Asked: Quickly give me recorded inhibition for CC(C)c1cccc(-c2ccc(C3=NOC4(CCN(Cc5ccccc5)CC4)N3)cc2)c1
Given back: inactive

Asked: Quickly give me recorded inhibition for c1ccc2cc(C3=NOC4(CCN(Cc5ccncc5)CC4)N3)ncc2c1
Given back: inactive

Asked: Quickly give me recorded inhibition for c1ccc(CN2CCC3(CC2)NC(c2cc4ccccc4cn2)=NO3)nc1
Given back: 37.9%

Asked: Quickly give me recorded inhibition for COc1cccc(-c2ccc(C3=NOC4(CCN(Cc5ccccc5)CC4)N3)cn2)c1
Given back: inactive

Asked: Quickly give me recorded inhibition for c1ccc(CN2CCC3(CC2)NC(c2cccs2)=NO3)cc1
Given back: inactive

Asked: Quickly give me recorded inhibition for Fc1ccc(C2=NOC3(CCN(Cc4ccccc4)CC3)N2)cc1
Given back: inactive

Asked: Quickly give me recorded inhibition for FC(F)(F)c1ccc(-c2ccc(C3=NOC4(CCN(Cc5ccccc5)CC4)N3)cc2)cc1
Given back: inactive

Asked: Quickly give me recorded inhibition for CCOC(=O)N1CCC2(CC1)NC(c1ccc(Br)cc1)=NO2
Given back: inactive

Asked: Quickly give me recorded inhibition for c1cc(CN2CCC3(CC2)NC(c2nccs2)=NO3)ccn1
Given back: inactive

###

target.or.test.system: Neuronal acetylcholine receptor subunit alpha-7 (Homo sapiens)
method.notes: Antagonist activity at human alpha7 nAChR expressed in Xenopus laevis oocytes assessed as inhibition of Ach-induced current at 30 uM measured at holding potential of -90 mV by two electrode voltage-clamp assay relative to control
Format: cell-based
run.parameters: Oocyte, filed as antagonist
measured.quantity: inhibition (%)

Reference set, count: 5
# chemical.smiles, target.or.test.system, inhibition, %
records = [
    ("Brc1ccc(C2=NOC3(CCN(Cc4ccccc4)CC3)N2)cn1", "Neuronal acetylcholine receptor subunit alpha-7 (Homo sapiens)", 63.7),
    ("COc1cccc(-c2ccc(C3=NOC4(CCN(C)CC4)N3)cc2)c1", "Neuronal acetylcholine receptor subunit alpha-7 (Homo sapiens)", 81.3),
    ("Fc1ccc(CN2CCC3(CC2)NC(C2CC2)=NO3)cc1", "Neuronal acetylcholine receptor subunit alpha-7 (Homo sapiens)", 52.8),
    ("Brc1ccc(C2=NOC3(CCN(Cc4ccccc4)CC3)N2)cc1", "Neuronal acetylcholine receptor subunit alpha-7 (Homo sapiens)", 90.8),
    ("COc1cccc(-c2ccc(C3=NOC4(CCN(Cc5ccccc5)CC4)N3)cc2)c1", "Neuronal acetylcholine receptor subunit alpha-7 (Homo sapiens)", 76.9),
]

P: COc1cc(-c2ccc(C3=NOC4(CCN(C)CC4)N3)cc2)ccn1
Q: Oc1cccc(-c2ccc(C3=NOC4(CCN(Cc5ccccc5)CC4)N3)cc2)c1
Asked: Which of the two gives a bigger number for inhibition: P or Q ? // output: label of the selected item
Given back: P
(P: 86.1%, Q: 59%)

###

target.or.test.system: Neuronal acetylcholine receptor; alpha4/beta2 (Rattus norvegicus, UniProt P09483+P12390)
Sequence (P09483 whole entry): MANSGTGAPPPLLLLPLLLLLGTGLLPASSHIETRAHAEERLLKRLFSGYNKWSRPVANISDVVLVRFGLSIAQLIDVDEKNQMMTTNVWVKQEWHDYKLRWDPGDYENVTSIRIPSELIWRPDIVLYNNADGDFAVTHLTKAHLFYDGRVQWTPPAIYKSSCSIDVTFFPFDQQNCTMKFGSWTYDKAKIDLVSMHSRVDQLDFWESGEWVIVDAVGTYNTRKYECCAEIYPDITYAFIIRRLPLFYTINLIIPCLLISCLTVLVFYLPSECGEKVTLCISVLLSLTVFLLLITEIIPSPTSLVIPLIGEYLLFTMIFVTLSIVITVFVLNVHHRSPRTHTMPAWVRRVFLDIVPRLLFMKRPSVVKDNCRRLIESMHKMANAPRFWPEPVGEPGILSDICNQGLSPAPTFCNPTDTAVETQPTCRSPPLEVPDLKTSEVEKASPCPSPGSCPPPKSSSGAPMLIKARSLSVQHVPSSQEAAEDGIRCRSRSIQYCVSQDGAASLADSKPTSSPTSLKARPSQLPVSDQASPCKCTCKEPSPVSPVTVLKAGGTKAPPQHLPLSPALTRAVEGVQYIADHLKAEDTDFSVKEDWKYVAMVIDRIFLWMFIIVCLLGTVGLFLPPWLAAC
Sequence (P12390 whole entry): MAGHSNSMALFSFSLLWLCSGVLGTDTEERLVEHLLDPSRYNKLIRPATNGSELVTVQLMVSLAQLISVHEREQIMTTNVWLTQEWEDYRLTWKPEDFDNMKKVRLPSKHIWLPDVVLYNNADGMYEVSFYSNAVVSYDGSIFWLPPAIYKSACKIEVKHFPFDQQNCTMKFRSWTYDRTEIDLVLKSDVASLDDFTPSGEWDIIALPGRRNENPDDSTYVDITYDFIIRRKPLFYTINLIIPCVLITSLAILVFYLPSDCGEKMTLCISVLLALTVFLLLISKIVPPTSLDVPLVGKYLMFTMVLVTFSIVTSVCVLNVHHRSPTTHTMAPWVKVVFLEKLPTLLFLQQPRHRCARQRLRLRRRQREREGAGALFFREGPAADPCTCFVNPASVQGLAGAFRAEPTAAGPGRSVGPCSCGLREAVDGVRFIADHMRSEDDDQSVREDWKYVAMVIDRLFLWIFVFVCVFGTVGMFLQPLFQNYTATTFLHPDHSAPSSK
method.notes: Antagonist activity at rat alpha4beta2 nAChR expressed in Xenopus laevis oocytes assessed as inhibition of Ach-induced current measured at holding potential of -90 mV by two electrode voltage-clamp assay
measured.quantity: IC50 (µM)
API: value field is a number in µM; no unit string.

Asked: Quickly give me recorded IC50 for CN1CCC2(CC1)NC(c1ccc(Br)cc1)=NO2
Given back: 32

###

target.or.test.system: Neuronal acetylcholine receptor subunit alpha-7 (Homo sapiens, UniProt P36544)
method.notes: Antagonist activity at human alpha7 nAChR expressed in Xenopus laevis oocytes assessed as inhibition of Ach-induced current measured at holding potential of -90 mV by two electrode voltage-clamp assay
measured.quantity: IC50 (µM)

# chemical.smiles, target.or.test.system, unit.name, IC50
data = [
    ("CN1CCC2(CC1)NC(c1ccc(Br)cc1)=NO2", "Neuronal acetylcholine receptor subunit alpha-7 (Homo sapiens, UniProt P36544)", "µM", 5.4),
    ("CN1CCC2(CC1)NC(c1ccccc1)=NO2", "Neuronal acetylcholine receptor subunit alpha-7 (Homo sapiens, UniProt P36544)", "µM", 4.4),
]

P: c1ccc(CN2CCC3(CC2)NC(c2ccccc2)=NO3)cc1
Q: Brc1ccc(C2=NOC3(CCN(Cc4ccccc4)CC3)N2)cc1
R: COc1cc(-c2ccc(C3=NOC4(CCN(C)CC4)N3)cc2)ccn1
Asked: With regard to IC50, arrange the entries in ascending order, please. I would appreciate it if you listed the labels in the requested order.
Given back: R, Q, P
(R: 3.3 µM, Q: 6 µM, P: 13.7 µM)

###

target.or.test.system: Neuronal acetylcholine receptor subunit alpha-7 (Homo sapiens)
method.notes: Antagonist activity at human alpha7 nAChR expressed in Xenopus laevis oocytes assessed as inhibition of Ach-induced current at 100 uM measured at holding potential of -90 mV by two electrode voltage-clamp assay relative to control
Format: cell-based
run.parameters: Oocyte
measured.quantity: inhibition (%)

# chemical.smiles, target.or.test.system, inhibition / %
data = [
    ("CC(C)c1cccc(-c2ccc(C3=NOC4(CCN(Cc5ccccc5)CC4)N3)cc2)c1", "Neuronal acetylcholine receptor subunit alpha-7 (Homo sapiens)", 26.2),
]

I: FC(F)(F)c1ccc(-c2ccc(C3=NOC4(CCN(Cc5ccccc5)CC4)N3)cc2)cc1
II: c1cc(CN2CCC3(CC2)NC(c2nccs2)=NO3)ccn1
Asked: Which of the two gives a bigger number for inhibition: I or II ? // output: label of the selected item
Given back: I
(I: 36.5%, II: 18.8%)
